Assignment: determine reported mortality for the given compounds.
- Tested on: Drosophila melanogaster
- ASSAY: Insecticidal activity against first-instar larval stage of Drosophila melanogaster fed with artificial diet containing compound assessed as mortality at 37.6 umol/ml measured after 120 hr
- Assay type: functional
Answers are plain numbers, in %.

Parameters: items (list). Returns: mortality for each item.
1. CC1=C2C[C@H](C(C)(O)CO)CC[C@@]2(C)CCC1=O (some centres undefined)
2. C=C(C)[C@@H]1CC[C@@]2(C)CC[C@@H](O)C(C)=C2C1 [3ALPHA-HYDROXY-CYPERONE]

Reply:
1: 23; 2: 10

Lab note: each compound below needs its mortality filled in.
1. C=C(C)[C@@H]1CC[C@]2(C)CCC(=O)[C@H](C)[C@]2(O)C1 [5ALPHA-HYDROXY-14-EUDESM-11-EN-3-ONE]
2. C=C(C)[C@@H]1CC[C@]2(C)CCC(=O)C[C@]2(O)C1 [5-HYDROXY-14-NOREUDESM-11-EN-3-ONE]

Reply:
1. 36.6
2. 23.3

* * *

- System: Drosophila melanogaster
- ASSAY: Insecticidal activity against first-instar larval stage of Drosophila melanogaster fed with artificial diet containing compound assessed as mortality at 37.6 umol/ml measured after 48 hr (reference value: 0%)
- Assay type: functional
PROPERTY NAME: mortality (%)
Give bare numbers, in %.

Take a look at these entries with their results.
[
  {
    "MOLECULE": "C=C(C)[C@@H]1CC[C@]2(C)CCC(=O)C[C@]2(O)C1 [5-HYDROXY-14-NOREUDESM-11-EN-3-ONE]",
    "RESULT UNIT": "%",
    "mortality": 13.3
  },
  {
    "MOLECULE": "C=C(C)[C@@H]1CC[C@@]2(C)CCC(=O)C(C)=C2C1 [ALPHA-CYPERONE]",
    "RESULT UNIT": "%",
    "mortality": 100
  },
  {
    "MOLECULE": "C=C(C)[C@@H]1CC[C@]2(C)CCC(=O)[C@H](C)[C@]2(O)C1 [5ALPHA-HYDROXY-14-EUDESM-11-EN-3-ONE]",
    "RESULT UNIT": "%",
    "mortality": 0
  }
]

Now examine the next entry.
Task item: # lookup: mortality of C=C(C)[C@@H]1CC[C@]2(C)CCC(=O)C(C)=C2C1 [(-)-10-EPI-ALPHA-CYPERONE]
Reply: 0.11

* * *

Hi there, I'd appreciate the recorded mortality for every entry that follows.
- System: Drosophila melanogaster
- ASSAY: Insecticidal activity against first-instar larval stage of Drosophila melanogaster fed with artificial diet containing compound assessed as mortality at 18.3 umol/ml measured after 48 hr (reference value: 0%)
- Assay type: functional
Give bare numbers, in %.

[
  {
    "COMPOUND": "C=C(C)[C@@H]1CC[C@]2(C)CCC(=O)[C@H](C)[C@]2(O)C1 [5ALPHA-HYDROXY-14-EUDESM-11-EN-3-ONE]",
    "PROPERTY NAME": "mortality",
    "RESULT NUMBER": 0
  }
]

List the reported mortality of each compound below.
1. C=C(C)[C@@H]1CC[C@@]2(C)CC[C@@H](O)C(C)=C2C1 [3ALPHA-HYDROXY-CYPERONE]
2. C=C(C)[C@@H]1CC[C@]2(C)CCC(=O)C[C@]2(O)C1 [5-HYDROXY-14-NOREUDESM-11-EN-3-ONE]
3. C=C(C)[C@@H]1CC[C@@]2(C)CCC(=O)C(C)=C2C1

Reply:
[0, 6.7, 100]

Dear reader, for each entry below, please note its mortality.
1. CC1=C2C[C@H](C(C)(O)CO)CC[C@@]2(C)CCC1=O (stereo partly drawn)
2. C=C(C)[C@@H]1CC[C@@]2(C)CCC(O)C(C)=C2C1 (mixture of isomers)

Reply:
[10, 86.7]

For each listed entry, give its mortality.
1. C=C(C)[C@@H]1CC[C@@]2(C)CC[C@H](O)C(C)=C2C1 [3BETA-HYDROXY-CYPERONE]
2. C=C(C)[C@@H]1CC[C@]2(C)CCC(=O)C(C)=C2C1 [(-)-10-EPI-ALPHA-CYPERONE]

Reply:
1: 73.3; 2: 0

* * *

- Test system: Drosophila melanogaster
- ASSAY: Insecticidal activity against first-instar larval stage of Drosophila melanogaster fed with artificial diet containing compound assessed as mortality at 37.6 umol/ml measured after 24 hr (reference value: 0%)
- Format: functional
PROPERTY NAME: mortality (%)
Answers are plain numbers, in %.

Example molecules with recorded mortality:
[
  {
    "MOLECULE": "CC1=C2C[C@H](C(C)(O)CO)CC[C@@]2(C)CCC1=O (some centres undefined)",
    "RESULT UNIT": "%",
    "mortality": 20
  },
  {
    "MOLECULE": "C=C(C)[C@@H]1CC[C@]2(C)CCC(=O)C[C@]2(O)C1 [5-HYDROXY-14-NOREUDESM-11-EN-3-ONE]",
    "RESULT UNIT": "%",
    "mortality": 13
  },
  {
    "MOLECULE": "C=C(C)[C@@H]1CC[C@]2(C)CCC(=O)[C@H](C)[C@]2(O)C1 [5ALPHA-HYDROXY-14-EUDESM-11-EN-3-ONE]",
    "RESULT UNIT": "%",
    "mortality": 0
  }
]

Task item: Provide the documented mortality with Drosophila melanogaster as the system for C=C(C)[C@@H]1CC[C@@]2(C)CCC(O)C(C)=C2C1 (mixture of isomers)
Reply: 90

* * *

For each of the molecules below, state its mortality.
- Test system: Drosophila melanogaster
- ASSAY: Insecticidal activity against first-instar larval stage of Drosophila melanogaster fed with artificial diet containing compound assessed as mortality at 8.3 umol/ml measured after 48 hr (reference value: 0%)
- Format: functional
Give bare numbers, in %.

For each entry beneath this line, provide reported mortality.
1. C=C(C)[C@@H]1CC[C@]2(C)CCC(=O)C[C@]2(O)C1 [5-HYDROXY-14-NOREUDESM-11-EN-3-ONE]
2. C=C(C)[C@@H]1CC[C@@]2(C)CCC(=O)C(C)=C2C1 [ALPHA-CYPERONE]
3. C=C(C)[C@@H]1CC[C@@]2(C)CC[C@@H](O)C(C)=C2C1 [3ALPHA-HYDROXY-CYPERONE]
4. C=C(C)[C@@H]1CC[C@@]2(C)CC[C@H](O)C(C)=C2C1 [3BETA-HYDROXY-CYPERONE]
5. C=C(C)[C@@H]1CC[C@@]2(C)CCC(O)C(C)=C2C1 (mixture of isomers)

Reply:
6.7
76.6
0
50
70

* * *

- Tested on: Drosophila melanogaster
- ASSAY: Insecticidal activity against first-instar larval stage of Drosophila melanogaster fed with artificial diet containing compound assessed as mortality at 37.6 umol/ml measured after 48 hr (reference value: 0%)
- Format: functional
For each record, write down the corresponding mortality.
One number for each entry, in %.

[
  {
    "MOLECULE": "C=C(C)[C@@H]1CC[C@@]2(C)CCC(O)C(C)=C2C1 (mixture of isomers)",
    "PROPERTY NAME": "mortality",
    "RESULT UNIT": "%",
    "RESULT NUMBER": 96
  },
  {
    "MOLECULE": "C=C(C)[C@@H]1CC[C@@]2(C)CC[C@@H](O)C(C)=C2C1 [3ALPHA-HYDROXY-CYPERONE]",
    "PROPERTY NAME": "mortality",
    "RESULT UNIT": "%",
    "RESULT NUMBER": 6.7
  },
  {
    "MOLECULE": "C=C(C)[C@@H]1CC[C@@]2(C)CC[C@H](O)C(C)=C2C1 [3BETA-HYDROXY-CYPERONE]",
    "PROPERTY NAME": "mortality",
    "RESULT UNIT": "%",
    "RESULT NUMBER": 96
  }
]

Turning now to a further record.
Task item: Form entry - test system: Drosophila melanogaster; read-out: mortality; molecule: CC1=C2C[C@H](C(C)(O)CO)CC[C@@]2(C)CCC1=O (some centres undefined)
Reply: 20

* * *

- Test system: Drosophila melanogaster
- ASSAY: Insecticidal activity against first-instar larval stage of Drosophila melanogaster fed with artificial diet containing compound assessed as mortality at 37.6 umol/ml measured after 24 hr (reference value: 0%)
- Format: functional
Can you tell me mortality for the items I'm about to list?
One number for each entry, in %.

Answered cases to consult:
[
  {
    "MOLECULE": "C=C(C)[C@@H]1CC[C@@]2(C)CC[C@@H](O)C(C)=C2C1 [3ALPHA-HYDROXY-CYPERONE]",
    "ASSAYED TARGET": "Drosophila melanogaster",
    "mortality, %": 0
  },
  {
    "MOLECULE": "C=C(C)[C@@H]1CC[C@@]2(C)CCC(=O)C(C)=C2C1",
    "ASSAYED TARGET": "Drosophila melanogaster",
    "mortality, %": 96.7
  },
  {
    "MOLECULE": "C=C(C)[C@@H]1CC[C@]2(C)CCC(=O)C(C)=C2C1 [(-)-10-EPI-ALPHA-CYPERONE]",
    "ASSAYED TARGET": "Drosophila melanogaster",
    "mortality, %": 0
  }
]

# next molecule below
Task item: Need mortality, item C=C(C)[C@@H]1CC[C@@]2(C)CC[C@H](O)C(C)=C2C1 [3BETA-HYDROXY-CYPERONE]
Reply: 80

The measured values listed here are drawn from ChEMBL document CHEMBL3044929.
